observable: melting point

stdin: Report melting point, nothing else, for this compound: COc1ccc(C2=NOC(Cc3c(F)c(F)c(F)c(F)c3F)C2)cc1 (centres unmarked)
stdout: 123 to 124 °C

stdin: Report melting point, nothing else, for this compound: COc1ccccc1C1=NOC(Cc2ccccc2)C1 (centres unmarked)
stdout: 81 to 82 °C

stdin: Report melting point, nothing else, for this compound: Clc1ccc(C2=NOC(Cc3ccccc3)(c3ccccc3)C2)cc1 (centres unmarked)
stdout: 120.3 to 122.1 °C

stdin: Report melting point, nothing else, for this compound: COc1ccc(C2=NOC(Cc3ccccc3)C2)cc1 (centres unmarked)
stdout: 99.6 to 100.3 °C

stdin: Report melting point, nothing else, for this compound: c1ccc(CCC2CC(c3ccccc3)=NO2)cc1 (centres unmarked)
stdout: 66.1 to 67.2 °C

stdin: Report melting point, nothing else, for this compound: Clc1ccc(C2=NOC(CCc3ccccc3)C2)cc1 (centres unmarked)
stdout: 74.8 to 75.7 °C

stdin: Report melting point, nothing else, for this compound: CC1(Cc2ccccc2)CC(c2ccc3ccccc3c2)=NO1 (centres unmarked)
stdout: 144.8 to 146.3 °C

stdin: Report melting point, nothing else, for this compound: COc1ccc(C2=NOC(Cc3ccc(F)cc3)C2)cc1 (centres unmarked)
stdout: 116.7 to 118.7 °C

stdin: Report melting point, nothing else, for this compound: Clc1ccc(C2=NOC(Cc3cccc4ccccc34)C2)cc1 (centres unmarked)
stdout: 127.9 to 130.9 °C

stdin: Report melting point, nothing else, for this compound: Fc1ccc(C2=NOC(CCc3ccccc3)C2)cc1 (centres unmarked)
stdout: 69.8 to 71.2 °C

stdin: Report melting point, nothing else, for this compound: COc1cccc(C2=NOC(Cc3ccccc3)(c3ccccc3)C2)c1 (centres unmarked)
stdout: 94.4 to 95.2 °C

stdin: Report melting point, nothing else, for this compound: Clc1cccc(Cl)c1C1=NOC(Cc2ccccc2)C1 (centres unmarked)
stdout: 90 to 90.5 °C

stdin: Report melting point, nothing else, for this compound: Oc1ccc(CC2CC(CCc3ccccc3)=NO2)cc1 (centres unmarked)
stdout: 124.8 to 126.4 °C

stdin: Report melting point, nothing else, for this compound: COc1ccc(CC2CC(c3ccc(Cl)cc3)=NO2)cc1 (centres unmarked)
stdout: 126.2 to 127.3 °C

stdin: Report melting point, nothing else, for this compound: COc1ccccc1C1=NOC(Cc2ccccc2)(c2ccccc2)C1 (centres unmarked)
stdout: 109.3 to 110.2 °C

stdin: Report melting point, nothing else, for this compound: Clc1ccc(C2=NOC(Cc3ccccc3)C2)cc1 (centres unmarked)
stdout: 128.2 to 129.4 °C

stdin: Report melting point, nothing else, for this compound: c1ccc(CCC2=NOC(c3ccccc3)C2)cc1 (centres unmarked)
stdout: 35 to 36.3 °C

stdin: Report melting point, nothing else, for this compound: COc1ccc(CC2CC(c3ccc(OC)cc3)=NO2)cc1 (centres unmarked)
stdout: 135.8 to 137.7 °C

stdin: Report melting point, nothing else, for this compound: c1ccc(CCC2=NOC(CCc3ccccc3)C2)cc1 (centres unmarked) [compound 116, 3,5-Di-phenethyl-4,5-dihydroisoxazole]
stdout: 56.2 to 58 °C

stdin: Report melting point, nothing else, for this compound: COc1ccc(C2=NOC(C)(Cc3ccccc3)C2)cc1 (centres unmarked)
stdout: 97.8 to 98.6 °C

====

- assayed.system: ERβ (Homo sapiens, UniProt Q92731)
- Sequence (Q92731 whole entry): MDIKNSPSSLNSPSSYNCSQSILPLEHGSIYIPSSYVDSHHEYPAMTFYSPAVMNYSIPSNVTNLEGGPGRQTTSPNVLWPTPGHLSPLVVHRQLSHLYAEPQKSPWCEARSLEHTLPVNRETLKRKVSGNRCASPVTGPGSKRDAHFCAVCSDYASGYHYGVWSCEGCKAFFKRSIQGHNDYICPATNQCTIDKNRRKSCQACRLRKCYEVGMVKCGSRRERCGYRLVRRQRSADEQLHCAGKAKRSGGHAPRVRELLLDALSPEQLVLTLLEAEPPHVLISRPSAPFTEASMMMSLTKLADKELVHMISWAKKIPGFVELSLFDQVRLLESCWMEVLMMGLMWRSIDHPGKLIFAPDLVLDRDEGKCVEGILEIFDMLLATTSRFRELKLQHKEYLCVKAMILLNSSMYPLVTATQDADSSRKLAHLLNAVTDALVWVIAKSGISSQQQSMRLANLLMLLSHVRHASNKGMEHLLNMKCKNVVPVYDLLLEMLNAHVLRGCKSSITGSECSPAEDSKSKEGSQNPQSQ
- assay: ERβ reporter (luciferase) transactivation assay in transfected HEK293 cells
- Type: cell-based
- Parameters: expressed in transfected cells; host or cells: HEK293
- test.settings: sample concentration 10 μM, 24 hours, mean of at least three independent transfections
observable: ERβ receptor activation relative to 10 nM E2 corresponding 100 (%)
Answer in %, number only, no unit symbol.

stdin: Report ERβ receptor activation relative to 10 nM E2 corresponding 100, nothing else, for this molecule: c1ccc(CC2CC(c3ccccc3)=NO2)cc1 (single isomer, unassigned) [107b, 5-Benzyl-3-phenyl-4,5-dihydroisoxazole]
stdout: 12.8

stdin: Report ERβ receptor activation relative to 10 nM E2 corresponding 100, nothing else, for this molecule: CC1(c2ccccc2)CC(CCCc2ccc(O)cc2)=NO1 (single isomer, unassigned) [90a]
stdout: 64.8

stdin: Report ERβ receptor activation relative to 10 nM E2 corresponding 100, nothing else, for this molecule: Oc1ccc(CCC2=NOC(Cc3ccc(F)cc3)C2)cc1 (single isomer, unassigned) [98a]
stdout: 28.4

stdin: Report ERβ receptor activation relative to 10 nM E2 corresponding 100, nothing else, for this molecule: Oc1ccc(CC2CC(CCc3ccccc3)=NO2)cc1 (single isomer, unassigned) [94b]
stdout: 42.4

stdin: Report ERβ receptor activation relative to 10 nM E2 corresponding 100, nothing else, for this molecule: CC1(c2ccccc2)CC(CCc2cccc(O)c2)=NO1 (single isomer, unassigned) [86b]
stdout: −2.9

stdin: Report ERβ receptor activation relative to 10 nM E2 corresponding 100, nothing else, for this molecule: Oc1ccc(CCC2=NOC(Cc3ccccc3)C2)cc1 (single isomer, unassigned) [93b]
stdout: 41.5

stdin: Report ERβ receptor activation relative to 10 nM E2 corresponding 100, nothing else, for this molecule: Oc1ccc(CCCC2=NOC(Cc3ccccc3)C2)cc1O (single isomer, unassigned) [102a]
stdout: 1.3

stdin: Report ERβ receptor activation relative to 10 nM E2 corresponding 100, nothing else, for this molecule: Oc1ccccc1CCC1=NOC(Cc2ccc(F)cc2)C1 (single isomer, unassigned) [97b]
stdout: −2.4

stdin: Report ERβ receptor activation relative to 10 nM E2 corresponding 100, nothing else, for this molecule: Oc1ccc(CCC2=NOC(Cc3ccc(O)cc3)C2)cc1 (single isomer, unassigned) [96b]
stdout: 4.1

stdin: Report ERβ receptor activation relative to 10 nM E2 corresponding 100, nothing else, for this molecule: Oc1ccc(C2=NOC(Cc3ccccc3)C2)cc1 (single isomer, unassigned) [80b]
stdout: 17.7

stdin: Report ERβ receptor activation relative to 10 nM E2 corresponding 100, nothing else, for this molecule: Oc1ccc(CC2CC(CCCc3ccc(O)c(O)c3)=NO2)cc1 (single isomer, unassigned) [103a]
stdout: −1.1

stdin: Report ERβ receptor activation relative to 10 nM E2 corresponding 100, nothing else, for this molecule: Fc1ccc(CC2CC(CCc3ccccc3)=NO2)cc1 (single isomer, unassigned) [66b]
stdout: 7.4

stdin: Report ERβ receptor activation relative to 10 nM E2 corresponding 100, nothing else, for this molecule: COc1ccc(C2=NOC(Cc3ccccc3)C2)cc1 (single isomer, unassigned) [12a]
stdout: 17.2

stdin: Report ERβ receptor activation relative to 10 nM E2 corresponding 100, nothing else, for this molecule: Oc1ccccc1CCC1=NOC(CCc2ccccc2)C1 (single isomer, unassigned) [104b]
stdout: 2.6

stdin: Report ERβ receptor activation relative to 10 nM E2 corresponding 100, nothing else, for this molecule: CC1(c2ccccc2)CC(CCc2ccccc2O)=NO1 (single isomer, unassigned) [85a]
stdout: −0.4

stdin: Report ERβ receptor activation relative to 10 nM E2 corresponding 100, nothing else, for this molecule: Oc1ccc(CCC2=NOC(CCc3ccccc3)C2)cc1 (single isomer, unassigned) [106a]
stdout: 15.4

stdin: Report ERβ receptor activation relative to 10 nM E2 corresponding 100, nothing else, for this molecule: Oc1cccc(CCC2=NOC(Cc3ccccc3)C2)c1 (single isomer, unassigned) [92b]
stdout: −2.5

stdin: Report ERβ receptor activation relative to 10 nM E2 corresponding 100, nothing else, for this molecule: c1ccc(CCCC2=NOC(Cc3ccccc3)C2)cc1 (single isomer, unassigned) [114a]
stdout: 13.6

stdin: Report ERβ receptor activation relative to 10 nM E2 corresponding 100, nothing else, for this molecule: Oc1ccccc1CCC1=NOC(Cc2ccccc2)C1 (single isomer, unassigned) [91b]
stdout: 30.5

stdin: Report ERβ receptor activation relative to 10 nM E2 corresponding 100, nothing else, for this molecule: c1ccc(CCC2=NOC(CCc3ccccc3)C2)cc1 (single isomer, unassigned) [116a, 3,5-Di-phenethyl-4,5-dihydroisoxazole]
stdout: 0.2

stdin: Report ERβ receptor activation relative to 10 nM E2 corresponding 100, nothing else, for this molecule: CC1(c2ccccc2)CC(CCc2ccccc2O)=NO1 (single isomer, unassigned) [85b]
stdout: 30.0

stdin: Report ERβ receptor activation relative to 10 nM E2 corresponding 100, nothing else, for this molecule: c1ccc(CCC2=NOC(Cc3cccc4ccccc34)C2)cc1 (single isomer, unassigned) [67b]
stdout: 6.5

stdin: Report ERβ receptor activation relative to 10 nM E2 corresponding 100, nothing else, for this molecule: CC1(c2ccccc2)CC(CCc2ccccc2)=NO1 (single isomer, unassigned) [71a]
stdout: −20.0

stdin: Report ERβ receptor activation relative to 10 nM E2 corresponding 100, nothing else, for this molecule: COc1ccc(CCCC2=NOC(c3ccccc3)C2)cc1 (single isomer, unassigned) [72b]
stdout: −9.0

stdin: Report ERβ receptor activation relative to 10 nM E2 corresponding 100, nothing else, for this molecule: Oc1ccc(CCCC2=NOC(c3ccccc3)C2)cc1 (single isomer, unassigned) [88a]
stdout: 44.7

stdin: Report ERβ receptor activation relative to 10 nM E2 corresponding 100, nothing else, for this molecule: Oc1ccc(CCCC2=NOC(Cc3ccccc3)C2)cc1 (single isomer, unassigned) [99a]
stdout: 78.2

stdin: Report ERβ receptor activation relative to 10 nM E2 corresponding 100, nothing else, for this molecule: c1ccc(CCC2CC(c3ccccc3)=NO2)cc1 (single isomer, unassigned) [111a]
stdout: 8.5

stdin: Report ERβ receptor activation relative to 10 nM E2 corresponding 100, nothing else, for this molecule: Oc1ccc(CC2=NOC(c3ccccc3)C2)cc1 (single isomer, unassigned) [84b]
stdout: 18.5

stdin: Report ERβ receptor activation relative to 10 nM E2 corresponding 100, nothing else, for this molecule: Oc1ccc(CC2CC(CCc3ccccc3)=NO2)cc1 (single isomer, unassigned) [94a]
stdout: 9.1

stdin: Report ERβ receptor activation relative to 10 nM E2 corresponding 100, nothing else, for this molecule: Oc1ccc(CCC2=NOC(CCc3ccccc3)C2)cc1 (single isomer, unassigned) [106b]
stdout: 0.8
